Listing of entries alongside the reported pIC50.
- assay system: human recombinant ETB receptor (Homo sapiens, UniProt P24530)
- procedure text: Inhibition of [125I]ET-1 binding to membranes from CHO cells carrying human ETB receptors
pIC50: −log10 of the molar value.

COc1cnc(OCCOc2ncnc(NS(=O)(=O)N(C)Cc3ccccc3)c2-c2ccc(Cl)cc2)nc1 = < 6.00
Cc1ccc(-c2c(NS(=O)(=O)NCC3CC3)ncnc2OCCOc2ncc(Br)cn2)cc1 = < 6.00
O=S(=O)(NCc1ccccc1)Nc1nc(-c2ncccn2)nc(OCCOc2ncc(Br)cn2)c1-c1ccccc1 = < 5.00
C=CCOc1nc(-c2ccnc(-c3nnn[nH]3)c2)nc(NS(=O)(=O)NCc2ccccc2)c1Oc1ccccc1OC = < 6.00

Here is the next item to consider.
Please give the documented pIC50 of "Cc1ccc(-c2c(NS(=O)(=O)NCc3ccc4c(c3)OCO4)ncnc2OCCOc2ncc(Br)cn2)cc1" < 6.00

* * *

Listing of entries alongside the reported pIC50.
- assay system: human recombinant ETB receptor (Homo sapiens)
- procedure text: Inhibition of [125I]ET-1 binding to membranes from CHO cells carrying human ETB receptors
Friendly reminder that pIC50 comes from taking -log10 of the concentration in mol/L.

See these solved cases before continuing.
COc1cnc(OCCOc2ncnc(NS(=O)(=O)NCc3ccc4c(c3)OCO4)c2Oc2cc(OC)ccc2Cl)nc1 = 7.10
COc1ccccc1Oc1c(NS(=O)(=O)NCc2ccccc2)nc(-c2ncccn2)nc1OCCOc1ncccn1 = 6.28
COc1ccccc1Oc1c(NS(=O)(=O)NCc2ccccc2)nc(-c2ncccn2)nc1OCCOC(=O)Nc1ccccn1 = 7.38

Specify pIC50 for "COc1ccccc1Oc1c(NS(=O)(=O)NCc2ccccc2)nc(-c2ccnc(-c3nnn[nH]3)c2)nc1OCCO" , system human recombinant ETB receptor (Homo sapiens). 6.47

Specify pIC50 for "COc1ccccc1Oc1c(NS(=O)(=O)NCc2ccccn2)nc(C2CC2)nc1OCCOc1ncc(Br)cn1" , system human recombinant ETB receptor (Homo sapiens). 6.24

Specify pIC50 for "COc1cnc(OCCOc2nc(-c3ncccn3)nc(NS(=O)(=O)NCc3ccco3)c2Oc2ccccc2OC)nc1" , system human recombinant ETB receptor (Homo sapiens). 6.91

Specify pIC50 for "COc1ccccc1Oc1c(NS(=O)(=O)NCc2ccc(Cl)cc2)nc(-c2ncccn2)nc1OCCOC(=O)Nc1ccccn1" , system human recombinant ETB receptor (Homo sapiens). 7.45

Specify pIC50 for "CCCCNS(=O)(=O)Nc1ncnc(OCCOc2ncc(SC)cn2)c1-c1ccc(Cl)cc1" , system human recombinant ETB receptor (Homo sapiens). 6.21

* * *

- assay system: human recombinant ETA receptor (Homo sapiens, UniProt P25101)
- Sequence (P25101 21-427): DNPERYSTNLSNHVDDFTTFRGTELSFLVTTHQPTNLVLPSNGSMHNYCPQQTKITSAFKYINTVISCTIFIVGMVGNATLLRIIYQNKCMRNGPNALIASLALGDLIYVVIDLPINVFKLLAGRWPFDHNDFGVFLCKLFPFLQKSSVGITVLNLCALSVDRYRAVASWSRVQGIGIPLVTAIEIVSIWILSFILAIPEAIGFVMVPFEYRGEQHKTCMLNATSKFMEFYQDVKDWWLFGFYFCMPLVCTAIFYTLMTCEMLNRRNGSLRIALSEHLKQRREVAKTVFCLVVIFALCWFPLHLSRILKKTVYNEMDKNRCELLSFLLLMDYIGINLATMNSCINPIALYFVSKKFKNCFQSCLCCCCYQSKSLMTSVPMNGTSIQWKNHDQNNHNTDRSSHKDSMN
- procedure text: Inhibition of [125I]ET-1 binding to membranes from CHO cells carrying human ETA receptors
# label = t if IC50 < 3 nM else f

See these solved cases before continuing.
COc1ccccc1Oc1c(NS(=O)(=O)NCc2ccccc2)nc(C2CC2)nc1OCCOC(=O)Nc1ccccn1 [Example 91] = t
COc1ccccc1Oc1c(NS(=O)(=O)NCc2ccccc2)nc(N2CCOCC2)nc1OCCO [Example 205] = f
COc1ccccc1Oc1c(NS(=O)(=O)NCc2ccco2)nc(-c2ncccn2)nc1OCCOc1ncc(Br)cn1 [Example 60] = f

Is IC50 strictly under 3 nM for the entry COc1ccc(CNS(=O)(=O)Nc2nc(-c3ncccn3)nc(OCCOC(=O)Nc3ccccn3)c2Oc2ccccc2OC)cc1 [Example 50] ? t

Is IC50 strictly under 3 nM for the entry O=S(=O)(NCc1ccccc1)Nc1ncnc(OCCOc2ncc(Br)cn2)c1-c1ccc(Br)cc1 [Example 100] ? t

* * *

- assay system: human recombinant ETB receptor (Homo sapiens, UniProt P24530)
- procedure text: Inhibition of [125I]ET-1 binding to membranes from CHO cells carrying human ETB receptors
Listing of entries alongside the reported log10(IC50).
Response schema: value (number) is log10 of IC50 in units of nM.

See these solved cases before continuing.
COc1cccc(CNS(=O)(=O)Nc2nc(-c3ncccn3)nc(OCCOC(=O)Nc3ccccc3)c2Oc2ccccc2OC)c1 = 1.20
COc1ccc(CNS(=O)(=O)Nc2nc(-c3ncccn3)nc(OCCOc3ncc(Br)cn3)c2Oc2ccccc2OC)cc1OC = 0.48
COc1ccccc1Oc1c(NS(=O)(=O)NCCc2ccccc2)nc(-c2ccncc2)nc1OCCOc1ncc(Br)cn1 = 3.27

Please give the documented log10(IC50) of "COc1ccccc1CNS(=O)(=O)Nc1nc(-c2ncccn2)nc(OCCOC(=O)Nc2ccccc2)c1Oc1ccccc1OC" 1.34

Please give the documented log10(IC50) of "COc1ccccc1Oc1c(NS(=O)(=O)Nc2ccc(C(C)C)cc2)nc(-c2ccncc2)nc1OCCOc1ncc(Br)cn1" 3.11

Please give the documented log10(IC50) of "COc1ccc(CNS(=O)(=O)Nc2ncnc(OCCOc3ncc(OC)cn3)c2Oc2cc(OC)ccc2Cl)cc1" 1.91

Please give the documented log10(IC50) of "COc1ccccc1Oc1c(NS(=O)(=O)NC2CC2)nc(-c2ccncc2)nc1OCCOc1ncc(Br)cn1" 2.55

* * *

- assay system: human recombinant ETA receptor (Homo sapiens, UniProt P25101)
- procedure text: Inhibition of [125I]ET-1 binding to membranes from CHO cells carrying human ETA receptors
Listing of entries alongside the reported IC50.
Expressed in nM, but write only the number.

Please give the documented IC50 of COc1ccccc1Oc1c(NS(=O)(=O)NCC2CCCCC2)nc(-c2ccncc2)nc1OCCOc1ncc(Br)cn1 [Example 130] 3.7

Please give the documented IC50 of COc1ccccc1Oc1c(NS(=O)(=O)NCc2ccccc2)nc(-c2ncccn2)nc1OCCOC(=O)Nc1ccccn1 [Example 41] 3.2

Please give the documented IC50 of COc1cccc(CNS(=O)(=O)Nc2nc(-c3ncccn3)nc(OCCOc3ncccn3)c2Oc2ccccc2OC)c1 [Example 171] 11

* * *

Listing of entries alongside the reported pIC50.
- assay system: human recombinant ETB receptor (Homo sapiens)
- Sequence (P24530 27-442): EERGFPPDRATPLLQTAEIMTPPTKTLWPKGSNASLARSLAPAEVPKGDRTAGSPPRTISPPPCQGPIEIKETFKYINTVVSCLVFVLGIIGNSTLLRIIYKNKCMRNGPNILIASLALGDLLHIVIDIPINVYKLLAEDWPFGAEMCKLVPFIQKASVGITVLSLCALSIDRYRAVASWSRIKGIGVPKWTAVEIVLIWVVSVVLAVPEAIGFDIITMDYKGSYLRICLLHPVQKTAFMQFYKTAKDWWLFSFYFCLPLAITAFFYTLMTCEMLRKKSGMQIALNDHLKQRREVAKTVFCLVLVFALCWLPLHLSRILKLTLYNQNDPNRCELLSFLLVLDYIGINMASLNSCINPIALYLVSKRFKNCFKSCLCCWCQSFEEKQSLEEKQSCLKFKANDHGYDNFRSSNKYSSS
- procedure text: Inhibition of [125I]ET-1 binding to membranes from CHO cells carrying human ETB receptors
pIC50: −log10 of the molar value.

See these solved cases before continuing.
COc1ccccc1Oc1c(NS(=O)(=O)NCc2ccccc2)nc(-c2ccnc(-c3nnn[nH]3)c2)nc1OC [Example 207] = < 6.00
O=S(=O)(NCc1ccccc1)Nc1nc(-c2ccncc2)nc(OCCOc2ncc(Br)cn2)c1-c1ccc(Cl)cc1 [Example 109] = < 6.00
O=S(=O)(NCc1ccccn1)Nc1ncnc(OCCOc2ncc(Br)cn2)c1-c1ccc(Cl)cc1 [Example 18] = 5.48

Here is the next item to consider.
Specify pIC50 for CSc1cnc(OCCOc2nc(-c3ccncc3)nc(NS(=O)(=O)NCc3ccccc3)c2-c2ccc(Cl)cc2)nc1 [Example 110] , system human recombinant ETB receptor (Homo sapiens). < 6.00

* * *

- assay system: human recombinant ETA receptor (Homo sapiens)
- procedure text: Inhibition of [125I]ET-1 binding to membranes from CHO cells carrying human ETA receptors
attribute measured: IC50 (nM)
Expressed in nM, but write only the number.

See these solved cases before continuing.
COc1ccccc1Oc1c(NS(=O)(=O)NCC2CC2)nc(-c2ccncc2)nc1OCCOc1ncc(Br)cn1 = 2.9
COc1ccc(CNS(=O)(=O)Nc2nc(-c3ncccn3)nc(OCCOc3ncc(OC)cn3)c2Oc2ccccc2OC)cc1 = 0.82
COc1ccccc1Oc1c(NS(=O)(=O)Nc2ccc(C(C)C)cc2)nc(-c2ccncc2)nc1OCCO = 1380
COc1cnc(OCCOc2nc(-c3ncccn3)nc(NS(=O)(=O)N(C)Cc3ccccc3)c2Oc2ccccc2OC)nc1 = 11
COc1ccccc1Oc1c(NS(=O)(=O)N(C)Cc2ccccc2)nc(-c2ncccn2)nc1OCCOc1ncc(Br)cn1 = 9.8
CCNS(=O)(=O)Nc1ncnc(OCCOc2ncc(SC)cn2)c1-c1ccc(Br)cc1 = 0.69
C=CCOc1nc(-c2ccncc2)nc(NS(=O)(=O)Nc2ccc(C(C)C)cc2)c1Oc1ccccc1OC = 2190
COc1cnc(OCCOc2nc(-c3ncccn3)nc(NS(=O)(=O)NC3CC3)c2Oc2ccccc2OC)nc1 = 23

Please give the documented IC50 of "C#CCOc1nc(-c2ccnc(-c3nnn[nH]3)c2)nc(NS(=O)(=O)NCc2ccccc2)c1Oc1ccccc1OC" 23

Please give the documented IC50 of "COc1cnc(OCCOc2ncnc(NS(=O)(=O)NCc3ccc4c(c3)OCO4)c2-c2ccc(C)cc2)nc1" 5

Please give the documented IC50 of "COc1cnc(OCCOc2nc(-c3ncccn3)nc(NS(=O)(=O)NCc3ccco3)c2Oc2ccccc2OC)nc1" 5.6

Please give the documented IC50 of "COc1ccccc1Oc1c(NS(=O)(=O)NCc2ccccc2)nc(-c2ccnc(-c3nnn[nH]3)c2)nc1OCCO" 17

All figures here come from patent US7094781B2.
